Values compiled from patent US20180334496A1.

measured_target: T1, recombinant human CFD, His-tagged (human, UniProt P00746 26-253)
T1 construct: also called rhCFD-His
T1 sequence (P00746 26-253 limits assumed): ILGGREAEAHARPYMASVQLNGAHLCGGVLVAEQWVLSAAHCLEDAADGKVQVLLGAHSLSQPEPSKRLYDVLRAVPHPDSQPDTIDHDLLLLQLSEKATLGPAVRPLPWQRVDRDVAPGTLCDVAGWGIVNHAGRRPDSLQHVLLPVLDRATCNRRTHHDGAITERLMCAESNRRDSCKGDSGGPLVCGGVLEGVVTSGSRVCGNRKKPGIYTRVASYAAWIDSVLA
experiment_summary: SPR MX96
quantity_kind: pKd
pKd field: float, defined as -log10 of concentration (mol/L).

Below: 9 binders and their reported pKd.
KCD224 (antibody, V domains shown, chimeric) VH: QVQLKESGPGLVAPSQSLSITCTVSGFSLTSYGVDWIRQSPGKGLEWLGVIWGVGSTNYNSALKSRLSISKDNSKSQVFLKMNSLQTDDTAMYYCARSYDGSYWYFDVWGTGTTVTVSS VL: DIQMTQTTSSLSASLGDRVTISCRASQVISNYLNWYQQKPDGTVKLLIYYTSRLHSGVPSRFSGSGSGTDYSLTISNLEPEDIATYYCQQYSKLPYTFGSGTKLEIK; 9.27
KCD230 (antibody, V domains shown) VH: QVQLQQPGTELVKPGASVKLPCKASGYTFTSYWMQWVKQRPGQGLEWIGEIDPSDTYINYNQKFKGKATLTVDTSSTTAYMQLSSLTSEDSAVYYCARYTTIMASDYWGQGTTLTVSS VL: DIQMTQTTSSLSVSLGDRVTISCRASQDITNYLNWYQQKPDGTVKLLIYFTSRLHSGVPSRFSGSGSGTDYSLTISNLEPEDIATYYCQQYSKLPWTFGGGTKLEIK; 8.80
KCD133 (antibody, V domains shown) VH: EVQLVESGGGLLQPKGSLKLSCAASGFTFNTYAMNWVRQAPGKGLEWVARIRSKSSNYATYYADSVKDRFTISRDDSQSMFYLEMNNLKTEDTAMYYCVRDRGYYYVMDYWGQGTSVTVSS VL: DIVLTQSPASLAVSLGQRATISCRASESVEYYGTSLMQWYQQKPGQPPKLLINAASNVESGVPARFSGSGSGTDFSLNIHPVEEDDIAMYFCQQSRKVPWTFGGGTKLEIK; 7.85
KCD018 (antibody, V domains shown) VH: QVQLQQSAAELARPGASVKMSCKASGYTFTSYTVHWVKQRPGQGLEWIGYINPSSGFTDYNQKFKDKTTLTADISSSTAYIQLSSLTSEDSAVYYCARRGVNWSWFAYWGQGTLVTVSA VL: NIMMTQSPSSLAVSAGEKVTMSCKSSQSVLYSSNQKNYLAWYQQKPGQSPQLLIYWASTRESGVPERFTGSGSGTDFTLTISSVQAEDLAVYYCHQYLSSWTFGGGTKLEIK; 7.39
KCD011 (antibody, V domains shown) VH: EVKLVESGGGLVQPGGSLKLSCAASGFTFSSNTMSWVRQTPEKRLEWVAYITNGGGSTYYPDTVKGRFTISRDNARNTLYLQMSSLKSEDTAMYYCARHDYYTMDYWGQGTSVTVSS VL: DIQMTQSPSSLSASLGGKVTITCKASQDINKYIAWYQHKPGKGPRLLIHYTSTLQPGIPSRFSGSGSGRDYSFSISNLEPEDIATYYCLQYDNLLYTFGGGTKLEIK; 7.23
KCD101 (antibody, V domains shown, chimeric) VH: QVQLQQPGAELVRPGTSVKLSCKASGYTFTSYWMHWVKQRPGQGLEWIGVIDPSDSYTNYNQKFKGKATLTVDTSSSTAYMQLSSLTSEDSAVYYCGRNGYDGSMDYWGQGTSVTVSS VL: DIQMTQTTSSLSASLGDRVTISCRASQDISNYLNWYQQKPDGTVKLLIYYPSRLHSGVPSRFSGSGSGTDYSLTISNLEQEDFATYFCQQGNTLPYTFGGGTKLEIK; 8.57
KCD126 (antibody, V domains shown) VH: EVQLQQSGAELVRPGSSVKMSCKTSGKTFTSHGINWVKQRPGQGLEWIGYIYIGNGYNEYNEKFKGKATLTSDTSSSTAYMQLSSLTFEDSAIYFCVRKAYGNYGFDDWGQGTTLTVSS VL: DIQMTQSPTSLSASLGESVSLTCRASQEISGNLNWLQQKPDGSIKRLIYAASTLDSGVPKRFSGSRSGSDYSLTISSLESEDFADYYCLQYANYPFTFGSGTKLEVK; 9.54
KCD040 (antibody, V domains shown, chimeric) VH: EVQLQQSGAELVKPGASVKLSCTASDFNIKDTYMHWVMQRPEQGLEWIGKIDPANGNTEFDPKFQGKATITADTSSNTAYLQLTSLTSEDTAVYYCTRAMDYWGQGTSVTVSS VL: QIVLTQSPAIMSASPGEKVTMTCSAGSSVSYMYWYQQKPGSSPRVLIYDTSNLASGVPVRFSGSGSGTSYSLTISRMEAEDAATYYCQQWSNYPYTFGGGTKLEIK; 8.85
KCD125 (antibody, V domains shown) VH: EVQLQQSGAELVRPGSSVKMSCKTSGNTFTSYGINWVKQRPGQGLEWIGYIYIGTGYTEYNEKFKGKATLTSDTSSSTAYMQLSSLTSEDSAIYFCVRKAYGNYGFDYWGQGTTLTVSS VL: DIQMTQSPSSLSASLGERVSLTCRASQEISGYLSWLQQKPDGTIKRLIYAASTLDSGVPKRFSGSRSGSDYSLTISSLESEDFADYYCLQYASYPFTFGSGTKLEIK; 8.60

Now for the binder whose pKd we want.
KCD047 (antibody, V domains shown, chimeric) VH: EVQLQQSGAEFVKPGASVRLSCTASGFNIKDTYMHWVKQRPEQGLEWIGRIDPANGYTKDDPKFQGKATITADTSSNTAYLQLSSLTSEDTAVYYCASAMDYWGQGTSVTVSS VL: QIVLTQSPAVMSASPGEKVAMTCSASSSVTYMYWYQQKPGSSPRLLIYDTSNLASGVPVRFSGSGSGTSYSLTISRMEAEDAATYYCQQWSTYPFPFGSGTKLEIK has a reported pKd of 8.47
